Target: recombinant ROCK2 (amino acids 1-552) (Homo sapiens)
Construct: ROCK2 (amino acids 1-552) proteins were purchased from ThermoFisher Scientific
Experiment: Z'-lyte kinase assay, ROCK2
This section presents compounds with their documented pIC50 values.
Scale for pIC50: -log10 of concentration given in mol/L; no unit attached.

If you can, please state the reported pIC50 value of CCNC(C(=O)Nc1ccc2[nH]ncc2c1)c1cccc(C)c1 (stereo not shown) [Example 49] . 7.06

If you can, please state the reported pIC50 value of CNC(C(=O)Nc1ccc2[nH]ncc2c1)c1cccc(C)c1 (stereo not shown) [Example 52] . 7.47

If you can, please state the reported pIC50 value of COc1ccc(C(NC(C)(C)C)C(=O)Nc2ccc3[nH]ncc3c2)cc1 (stereo not shown) [Example 36] . 8.00

If you can, please state the reported pIC50 value of CCOc1ccc(C(NC)C(=O)Nc2ccc3[nH]ncc3c2)cc1 (stereo not shown) [Example 43] . 7.14

If you can, please state the reported pIC50 value of CCNC(C(=O)Nc1ccc2[nH]ncc2c1)c1ccc(OC)cc1 (stereo not shown) [Example 26] . 7.92

If you can, please state the reported pIC50 value of Cc1ccc(C(NC(C)C)C(=O)Nc2ccc3[nH]ncc3c2)cc1 (stereo not shown) [Example 29] . 8.20

Note: attention shifts to another entry.
If you can, please state the reported pIC50 value of CNC(C(=O)Nc1ccc2[nH]ncc2c1)c1ccc(F)c(OC)c1 (stereo not shown) [Example 48] . 7.15

----------
Biological target: recombinant ROCK1 (amino acids 1-535) (Homo sapiens)
Construct: recombinant ROCK1 (amino acids 1-535) and ROCK2; purchased ThermoFisher Scientific
Sequence (Q13464 1-535): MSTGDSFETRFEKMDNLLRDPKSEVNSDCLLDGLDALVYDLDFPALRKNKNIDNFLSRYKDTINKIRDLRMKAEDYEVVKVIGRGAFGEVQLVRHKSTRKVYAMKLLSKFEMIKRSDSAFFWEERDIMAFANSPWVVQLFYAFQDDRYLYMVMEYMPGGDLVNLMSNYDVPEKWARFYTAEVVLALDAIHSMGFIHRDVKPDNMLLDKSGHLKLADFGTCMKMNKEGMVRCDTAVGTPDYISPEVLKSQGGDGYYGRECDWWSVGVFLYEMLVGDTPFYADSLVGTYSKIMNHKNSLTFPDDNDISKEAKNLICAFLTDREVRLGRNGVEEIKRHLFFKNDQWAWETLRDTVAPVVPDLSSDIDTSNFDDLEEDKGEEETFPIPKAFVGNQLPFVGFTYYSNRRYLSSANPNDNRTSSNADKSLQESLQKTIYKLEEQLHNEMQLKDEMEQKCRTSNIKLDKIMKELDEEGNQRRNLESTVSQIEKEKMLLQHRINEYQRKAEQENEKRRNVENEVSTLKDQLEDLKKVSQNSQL
Assay: Z'-lyte kinase assay, ROCK1
Format: biochemical
Settings: @ 0.5 μM; read-out: ROCK1 % inh
Decide using inhibition at 0.5 µM: a value greater than or equal to 90% is 1 (yes), a smaller one is 0 (no).

Some entries whose results are on file:
Please check the record CNC(C(=O)Nc1ccc2[nH]ncc2c1)c1cccc(OC(F)(F)F)c1 (centres unmarked) and state if its inhibition at 0.5 µM is at or above 90%. 1 (yes)

Please check the record CCNC(C(=O)Nc1ccc2[nH]ncc2c1)c1cccc(Cl)c1 (centres unmarked) and state if its inhibition at 0.5 µM is at or above 90%. 0 (no)

Please check the record CNC(C(=O)N(CCN(C)C)c1ccc2[nH]ncc2c1)c1cccc(OC)c1 (centres unmarked) and state if its inhibition at 0.5 µM is at or above 90%. 0 (no)

Okay, now this compound:
Please check the record CNC(C(=O)Nc1ccc2[nH]ncc2c1)c1ccc(F)c(OC)c1 (centres unmarked) and state if its inhibition at 0.5 µM is at or above 90%. 0 (no)

----------
Molecular target: recombinant ROCK2 (amino acids 1-552) (Homo sapiens)
Construct: ROCK2 (amino acids 1-552) proteins were purchased from ThermoFisher Scientific; purchased ThermoFisher Scientific
Test: Z'-lyte kinase assay, ROCK2
Type: biochemical
Settings: @ 0.5 μM; read-out: ROCK2 % inh
Decide using inhibition at 0.5 µM: a value greater than or equal to 90% is y, a smaller one is n.

Some entries whose results are on file:
Please check the record CNC(C(=O)Nc1ccc2[nH]ncc2c1)c1cccc(OC(F)(F)F)c1 (stereo not drawn) [Example 50] and state if its inhibition at 0.5 µM is at or above 90%. y

Please check the record CCNC(C(=O)Nc1ccc2[nH]ncc2c1)c1cccc(Cl)c1 (stereo not drawn) [Example 58] and state if its inhibition at 0.5 µM is at or above 90%. n

Please check the record CNC(C(=O)Nc1ccc2[nH]ncc2c1)c1ccc(Oc2ccc(OC)cc2)cc1 (stereo not drawn) [Example 14] and state if its inhibition at 0.5 µM is at or above 90%. y

Please check the record CNC(C(=O)Nc1ccc2[nH]ncc2c1)c1ccc(OC)c(F)c1 (stereo not drawn) [Example 57] and state if its inhibition at 0.5 µM is at or above 90%. y

Please check the record CCNC(C(=O)Nc1ccc2[nH]ncc2c1)c1cccc(C)c1 (stereo not drawn) [Example 49] and state if its inhibition at 0.5 µM is at or above 90%. n

Okay, now this molecule:
Please check the record CNC(C(=O)Nc1ccc2[nH]ncc2c1)c1ccc(F)c(OC)c1 (stereo not drawn) [Example 48] and state if its inhibition at 0.5 µM is at or above 90%. n

----------
Biological target: recombinant ROCK1 (amino acids 1-535) (Homo sapiens)
Construct: recombinant ROCK1 (amino acids 1-535) and ROCK2; purchased ThermoFisher Scientific
Experiment: Z'-lyte kinase assay, ROCK1
Assay type: biochemical
Settings: 3 μM; read-out: ROCK1 % inh
This section presents compounds with their documented inhibition at 3 µM values.
Your answer is read as %, so omit the unit and give the number.

If you can, please state the reported inhibition at 3 µM value of NC(C(=O)Nc1ccc2[nH]ncc2c1)c1cccc(F)c1 (stereo not shown) [Comp6, reference compound] . 99

If you can, please state the reported inhibition at 3 µM value of NC(C(=O)Nc1ccc2[nH]ncc2c1)c1ccccc1 (stereo not shown) [Comp3, reference compound] . 91.5

If you can, please state the reported inhibition at 3 µM value of CC(C)(C)NC(C(=O)Nc1ccc2[nH]ncc2c1)c1ccccc1 (stereo not shown) [Example 37] . 99

***
If you can, please state the reported inhibition at 3 µM value of CC(C)NC(C(=O)Nc1ccc2[nH]ncc2c1)c1ccccc1 (stereo not shown) [Example 22] . 94.3

If you can, please state the reported inhibition at 3 µM value of CC(C)NC(C(=O)Nc1ccc2[nH]ncc2c1)c1ccc(Cl)cc1 (stereo not shown) [Example 18] . 89.6

If you can, please state the reported inhibition at 3 µM value of COc1ccc(C(NC(C)C)C(=O)Nc2ccc3[nH]ncc3c2)cc1 (stereo not shown) [Example 25] . 99

If you can, please state the reported inhibition at 3 µM value of CNC(C(=O)Nc1ccc2[nH]ncc2c1)c1ccc(C)cc1 (stereo not shown) [Example 28] . 99

----------
Target: recombinant ROCK2 (amino acids 1-552) (Homo sapiens, UniProt O75116)
Construct: ROCK2 (amino acids 1-552) proteins were purchased from ThermoFisher Scientific; purchased ThermoFisher Scientific
Sequence (O75116 1-552): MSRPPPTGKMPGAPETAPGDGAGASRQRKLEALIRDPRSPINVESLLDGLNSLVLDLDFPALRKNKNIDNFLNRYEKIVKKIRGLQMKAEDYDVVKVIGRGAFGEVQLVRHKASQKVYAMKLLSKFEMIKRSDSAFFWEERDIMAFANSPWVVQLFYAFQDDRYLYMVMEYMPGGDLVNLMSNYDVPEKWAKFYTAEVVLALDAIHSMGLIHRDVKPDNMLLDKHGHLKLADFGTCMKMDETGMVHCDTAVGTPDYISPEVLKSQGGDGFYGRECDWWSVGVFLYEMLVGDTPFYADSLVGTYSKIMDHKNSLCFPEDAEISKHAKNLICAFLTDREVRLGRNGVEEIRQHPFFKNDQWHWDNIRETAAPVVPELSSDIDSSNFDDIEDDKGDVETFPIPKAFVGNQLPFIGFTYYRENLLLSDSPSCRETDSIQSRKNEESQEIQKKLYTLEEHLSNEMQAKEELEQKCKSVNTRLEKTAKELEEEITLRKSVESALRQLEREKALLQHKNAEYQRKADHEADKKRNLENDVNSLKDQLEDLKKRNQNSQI
Test: Z'-lyte kinase assay, ROCK2
Type: biochemical
Conditions: @ 1 μM; read-out: ROCK2 % inh
MEASUREMENT_NAME: inhibition at 1 µM (%)
Your answer is read as %, so omit the unit and give the number.

Examples from the recorded data:
If you can, please state the reported inhibition at 1 µM value of O=C(Nc1ccc2[nH]ncc2c1)C1CNCc2ccccc21 (centres unmarked) . 76.7

If you can, please state the reported inhibition at 1 µM value of CNC(C(=O)N(CCN(C)C)c1ccc2[nH]ncc2c1)c1cccc(OC)c1 (centres unmarked) . 11

If you can, please state the reported inhibition at 1 µM value of CNC(C(=O)Nc1ccc2[nH]ncc2c1)c1ccccc1OC (centres unmarked) . 71

If you can, please state the reported inhibition at 1 µM value of COc1ccc(C(N)C(=O)Nc2ccc3[nH]ncc3c2)cc1 (centres unmarked) [Comp4, reference compound] . 96.5

If you can, please state the reported inhibition at 1 µM value of COCCNC(C(=O)Nc1ccc2[nH]ncc2c1)c1cccc(OC)c1 (centres unmarked) . 67

***
If you can, please state the reported inhibition at 1 µM value of CNC(C(=O)Nc1ccc2[nH]ncc2c1)c1cccc(OC)c1 (centres unmarked) . 99.5

If you can, please state the reported inhibition at 1 µM value of CNC(C(=O)Nc1ccc2[nH]ncc2c1)c1ccc(-c2ccccc2F)cc1 (centres unmarked) . 66.5

If you can, please state the reported inhibition at 1 µM value of CCOc1ccc(C(NC)C(=O)Nc2ccc3[nH]ncc3c2)cc1 (centres unmarked) . 98

If you can, please state the reported inhibition at 1 µM value of Cc1ccc(C(N)C(=O)Nc2ccc3[nH]ncc3c2)cc1 (centres unmarked) [Comp5, reference compound] . 96.2

If you can, please state the reported inhibition at 1 µM value of CNC(C(=O)Nc1ccc2[nH]ncc2c1)c1ccc(Cl)cc1 (centres unmarked) . 99

If you can, please state the reported inhibition at 1 µM value of CNC(C(=O)Nc1ccc2[nH]ncc2c1)c1ccc(-c2ccc(OC)cc2)cc1 (centres unmarked) . 22

----------
System: phospho-myosin light chains (ppMlc, Thr18/Ser19) in A7R5 cells
Assay: A7R5 in-cell ELISA, phospho-myosin light chain
Assay type: cell-based, rat
Conditions: Rattus norvegicus, 1.5 h; A7R5 cells, 90 min; read-out: pMLC IC50 A7R5
MEASUREMENT_NAME: pIC50
Scale for pIC50: -log10 of concentration given in mol/L; no unit attached.

Examples from the recorded data:
If you can, please state the reported pIC50 value of CNC(C(=O)Nc1ccc2[nH]ncc2c1)c1ccc(Oc2cccc(OC)c2)cc1 (stereo not shown) [Example 15] . 6.91

If you can, please state the reported pIC50 value of CNC(C(=O)Nc1ccc2[nH]ncc2c1)c1cccc(OC)c1 (stereo not shown) [Example 41] . 6.52

If you can, please state the reported pIC50 value of NC(C(=O)Nc1ccc2[nH]ncc2c1)c1ccccc1F (stereo not shown) [Comp7, reference compound] . 4.74

If you can, please state the reported pIC50 value of CNC(C(=O)Nc1ccc2[nH]ncc2c1)c1cccc(F)c1 (stereo not shown) [Example 53] . 6.04

If you can, please state the reported pIC50 value of CNC(C(=O)Nc1ccc2[nH]ncc2c1)c1cccnc1 (stereo not shown) [Example 39] . 5.38

If you can, please state the reported pIC50 value of CNC(C(=O)Nc1ccc2[nH]ncc2c1)c1cccc(Cl)c1 (stereo not shown) [Example 42] . 6.34

***
If you can, please state the reported pIC50 value of COc1ccc(C(NC(C)(C)C)C(=O)Nc2ccc3[nH]ncc3c2)cc1 (stereo not shown) [Example 36] . 6.12

If you can, please state the reported pIC50 value of CCNC(C(=O)Nc1ccc2[nH]ncc2c1)c1ccc(OC)cc1 (stereo not shown) [Example 26] . 6.58

If you can, please state the reported pIC50 value of CCNC(C(=O)Nc1ccc2[nH]ncc2c1)c1ccccc1 (stereo not shown) [Example 21] . 5.62

If you can, please state the reported pIC50 value of CNC(C(=O)Nc1ccc2[nH]ncc2c1)c1ccc(Oc2ccc(OC)cc2)cc1 (stereo not shown) [Example 14] . 6.68

If you can, please state the reported pIC50 value of CN[C@H](C(=O)Nc1ccc2[nH]ncc2c1)c1cccc(OC)c1 [Example 55] . 6.23
